Test system: corn
Assay protocol: Test B pre/postemergence corn
Assay type: in vivo, Zea mays
Test parameters: Preemergence, Rate 62 g/ha; scale 0 to 10 (0 no effect, 10 complete control)
Property measured: Corn plant response rating
// print number alone

Worked examples follow.
Compound string	Corn plant response rating
CC(C)N(C(=O)n1oc(=O)n(Cc2ccccc2)c1=O)c1ccccc1	0
C=CCn1c(=O)on(C(=O)N(c2ccc(F)cc2)C(C)C)c1=O	3
CN(C(=O)n1oc(=O)n(Cc2ccccc2)c1=O)c1ccccc1	0
COc1ccccc1Cn1c(=O)on(C(=O)N(c2ccc(F)cc2)C(C)C)c1=O	0

Here is another molecule to look at.
Q: Which Corn plant response rating is listed for CC(C)N(C(=O)n1oc(=O)n(C)c1=O)c1ccc(Cl)cc1 ?
Ans: 0

* * *

Tested on: surinam grass
Assay protocol: Test B pre/postemergence surinam grass
Type: in vivo, Brachiaria decumbens
Test parameters: Preemergence, Rate 500 g/ha; scale of 0 to 10 where 0 is no effect and 10 is complete control
Experimental: […] At the same time, these crop and weed species were also treated with postemergence applications of test chemicals formulated in the same manner. […] Treated plants and controls were maintained in a greenhouse for twelve to sixteen days, after which all species were compared to controls and visually evaluated. […]
Property measured: Plant response rating, B. signalgrass
Lab note: write the figure by itself, no unit.

For orientation, consider the following solved cases.
Compound	Plant response rating, B. signalgrass
CC(C)N(C(=O)n1oc(=O)n(C(C)C2CC2)c1=O)c1ccccc1 (stereo not drawn)	10
CC(C)N(C(=O)n1oc(=O)n(CC(C)(C)C)c1=O)c1ccccc1	10
CC(C)N(C(=O)n1oc(=O)n(Cc2nnc(Cl)s2)c1=O)c1ccc(F)cc1	0
CCOC(Cn1c(=O)on(C(=O)N(c2ccc(Cl)cc2)C(C)C)c1=O)OCC	6
CC(C)N(C(=O)n1oc(=O)n(C(C)C2CCC2)c1=O)c1ccc(F)cc1F (stereo not drawn)	8

Q: Which Plant response rating, B. signalgrass is listed for CCN(C(=O)n1oc(=O)n(C)c1=O)C1CCCCC1 ?
Ans: 0

* * *

Here, each record is paired with measured Redroot pigweed plant response rating data.
Test system: pigweed
Assay protocol: Test B pre/postemergence pigweed
Type: in vivo, Amaranthus retroflexus
Test parameters: Preemergence, Rate 62 g/ha; scale 0 to 10 (0 no effect, 10 complete control)
Output: the number by itself.

Example cases with answers are listed next.
Compound	Redroot pigweed plant response rating
CC(C)N(C(=O)n1oc(=O)n(C)c1=O)c1ccc(Cl)cc1 [Compound 137]	9
CC(C)N(C(=O)n1oc(=O)n(COCc2ccccc2)c1=O)c1ccccc1 [Compound 579]	0
CC(C)N(C(=O)n1oc(=O)n(CCC(F)(F)F)c1=O)c1ccc(Cl)cc1 [Compound 554]	9

Q: Request: Redroot pigweed plant response rating, test system pigweed, entry C=CCn1c(=O)on(C(=O)N(c2ccc(F)cc2)C(C)C)c1=O [Compound 146]
Ans: 10

* * *

System: cocklebur
Assay protocol: Test B pre/postemergence cocklebur
Format: in vivo, Xanthium strumarium
Test parameters: Rate 250 g/ha; Postemergence
Experimental: […] At the same time, these crop and weed species were also treated with postemergence applications of test chemicals formulated in the same manner. […] Treated plants and controls were maintained in a greenhouse for twelve to sixteen days, after which all species were compared to controls and visually evaluated. […]
Property measured: Plant response rating (0 to 10; 0 is no effect, 10 is complete control), Cocklebur
Lab note: jot down the number only; don't add units.

Solved cases (2 shown):
Compound	Data value
CCN(Cc1ccncc1)C(=O)n1oc(=O)n(C(C)C)c1=O [Compound 189]	0
Cc1nc(C)c(-n2c(=O)on(C(=O)N(c3ccccc3)C(C)C)c2=O)s1 [Compound 197]	0

Q: Short answer please: Plant response rating (0 to 10; 0 is no effect, 10 is complete control), Cocklebur, cocklebur, entry CC(C)N(C(=O)n1oc(=O)n(CCc2ccccc2)c1=O)c1ccc(F)cc1 [Compound 250]
Ans: 1

Q: Lookup: Plant response rating (0 to 10; 0 is no effect, 10 is complete control), Cocklebur / cocklebur / Cc1nc(C)c(-n2c(=O)on(C(=O)N(c3ccc(Cl)cc3)C(C)C)c2=O)s1 [Compound 196]
Ans: 0

Q: Find Plant response rating (0 to 10; 0 is no effect, 10 is complete control), Cocklebur (cocklebur) for the entry Cc1noc(C)c1Cn1c(=O)on(C(=O)N(c2ccc(F)cc2)C(C)C)c1=O [Compound 259]
Ans: 2

* * *

Tested on: wild oat
Assay protocol: Test B pre/postemergence wild oat
Type: in vivo, Avena fatua
Test parameters: Preemergence, Rate 250 g/ha; scale 0 to 10, 0 is no effect, 10 is complete control
Wild oats plant response rating overview
// print number alone

Compound	Data value
CCOP(=O)(OCC)C(C)n1c(=O)on(C(=O)N(c2ccccc2)C(C)C)c1=O (centres unmarked)	0

Q: Which Wild oats plant response rating is reported with wild oat for this entry: CC(C)C(=O)Cn1c(=O)on(C(=O)N(c2ccc(F)cc2F)C(C)C)c1=O ?
Ans: 5

* * *

Test system: crabgrass
Assay protocol: Test B pre/postemergence crabgrass
Type: in vivo, Digitaria sanguinalis
Test parameters: Preemergence, Rate 250 g/ha; scale 0 to 10, 0 is no effect, 10 is complete control
Description: […] At the same time, these crop and weed species were also treated with postemergence applications of test chemicals formulated in the same manner. […] Treated plants and controls were maintained in a greenhouse for twelve to sixteen days, after which all species were compared to controls and visually evaluated. […]
Property measured: Crabgrass plant response rating
Note: the reply should be a number with no unit written.

Q: Param readout = Crabgrass plant response rating; param system = crabgrass; param query = CCN(Cc1ccncc1)C(=O)n1oc(=O)n(C(C)C)c1=O ; response: value
Ans: 0

Q: Please provide the recorded Crabgrass plant response rating for COc1ccccc1Cn1c(=O)on(C(=O)N(c2ccc(F)cc2)C(C)C)c1=O , tested on crabgrass.
Ans: 8

Q: Lab note: need Crabgrass plant response rating for CC(C)N(C(=O)n1oc(=O)[nH]c1=O)c1ccc(F)cc1 on crabgrass, anyone have it?
Ans: 0

Q: Request: Crabgrass plant response rating, test system crabgrass, entry CC(C)N(C(=O)n1oc(=O)n(C(CF)CF)c1=O)c1ccccc1
Ans: 9

Q: Recorded Crabgrass plant response rating for Cc1nc(Cl)sc1C(C)n1c(=O)on(C(=O)N(c2ccc(F)cc2)C(C)C)c1=O (stereo not drawn) with crabgrass, please?
Ans: 8

* * *

Test system: bedstraw
Assay protocol: Test B pre/postemergence bedstraw
Assay type: in vivo, Galium aparine
Test parameters: Preemergence, Rate 250 g/ha; scale 0 (no effect) to 10 (complete control)
Property measured: Bedstraw plant response rating
Output: the number by itself.

Compound	Data value
CC(C)N(C(=O)n1oc(=O)n(CCCCCl)c1=O)c1ccc(F)cc1 [Compound 712]	2
CC(C)N(C(=O)n1oc(=O)n(CCCCl)c1=O)c1ccccc1 [Compound 750]	0
COC1CCC(Cn2c(=O)on(C(=O)N(c3ccc(F)cc3)C(C)C)c2=O)=NO1 (stereo not shown) [Compound 766]	10

// next item, Bedstraw plant response rating requested
Q: Given the entry CCOP(=O)(Cn1c(=O)on(C(=O)N(c2ccc(F)cc2F)C(C)C)c1=O)OCC [Compound 736] , report its measured Bedstraw plant response rating.
Ans: 0

* * *

System: wild oat
Assay protocol: Test B pre/postemergence wild oat
Assay type: in vivo, Avena fatua
Test parameters: Postemergence, Rate 500 g/ha; scale 0 to 10, 0 is no effect, 10 is complete control
Property measured: Plant response rating, Wild oats
No unit in the answer, only the number.

Some solved entries appear below for comparison.
Compound string	Data value
CC(C)C(=O)Cn1c(=O)on(C(=O)N(c2ccc(F)cc2F)C(C)C)c1=O	3
Cc1noc(C)c1Cn1c(=O)on(C(=O)N(c2ccc(F)cc2F)C(C)C)c1=O	5
COC(=O)CCCn1c(=O)on(C(=O)N(c2ccc(Cl)cc2)C(C)C)c1=O	3

// below: Plant response rating, Wild oats requested for another compound
Q: Which Plant response rating, Wild oats is listed for CC(C)=CCn1c(=O)on(C(=O)N(c2ccc(F)cc2F)C(C)C)c1=O ?
Ans: 0

* * *

System: winter wheat
Assay protocol: Test E winter wheat
Format: in vivo, Triticum aestivum
Test parameters: Preemergence, Rate 125 g/ha; 0 to 100 scale (0 no effect, 100 complete control)
List of Plant response rating, Wheat (winter) values.
Keep it simple and answer with nothing but the number.

Take a look at these entries with their results.
Compound string	Plant response rating, Wheat (winter)
CC(C)N(C(=O)n1oc(=O)n(C)c1=O)c1ccc(Cl)cc1	20
CC(C)N(C(=O)n1oc(=O)n(C(C)C)c1=O)c1ccc(F)cc1F	30
CC(Cl)=CCn1c(=O)on(C(=O)N(c2ccc(F)cc2)C(C)C)c1=O	30

Shift focus to the following entry.
Q: Any idea what Plant response rating, Wheat (winter) was measured for Cc1ccc(N(C(=O)n2oc(=O)n(C(C)C)c2=O)C(C)C)cc1 ?
Ans: 30
